settings: in isopentanol, 293.07 K
endpoint name: solubility (mole fraction)
Just the number, please.

Given the entry c1ccc(-c2ccc(C(c3ccccc3)n3ccnc3)cc2)cc1 (stereo unspecified) , report its measured solubility (mole fraction).
0.00652

----------
settings: in DMF, 323.18 K
endpoint name: solubility (mole fraction)
Answer using only a numeral; do not append any unit.

What value of solubility (mole fraction) has been recorded for this entry: c1ccc(-c2ccc(C(c3ccccc3)n3ccnc3)cc2)cc1 (stereo unspecified)
0.0565

----------
details: in isopentanol, 313.18 K
endpoint name: solubility (mole fraction)
// keep it numeric: no unit symbol after the value

Given the entry c1ccc(-c2ccc(C(c3ccccc3)n3ccnc3)cc2)cc1 (stereo unspecified) , report its measured solubility (mole fraction).
0.0171
